Listed compounds paired with reported MIC
test system: enterococci; assay: Minimum inhibitory concentration, microdilution broth method, enterococci; format: cell-based; settings: Enterococcus faecalis, E. faecalis GC 2242; Mueller-Hinton broth, 18-22 hours at 35° C.; read-out: MIC E. faecalis GC 2242
Just the number please, in µg/mL, no unit attached.

O=C1O/C(=C\c2cccc(-c3ccc(Cl)c(Cl)c3)c2)C(O)=C1c1ccc(Cl)c(Cl)c1 = 4
Cc1cc(/C=C2\OC(=O)C(c3cccc(Cl)c3)=C2O)ccc1-c1ccccc1C(F)(F)F = 2
COc1ccc(C2=C(O)/C(=C/c3cccc4ccccc34)OC2=O)cc1 = 32
O=C1O/C(=C\c2ccc(N3CCOCC3)c3ccccc23)C(O)=C1c1cccc(Cl)c1 = 16
O=C1O/C(=C\c2cccc3ccccc23)C(O)=C1c1cccc(C(F)(F)F)c1 = 8

Supply MIC value. Item: "O=C1O/C(=C\c2ccc(-c3ccccc3)cc2)C(O)=C1c1cccs1" 32

Report MIC for "O=C1O/C(=C\c2cccc3ccccc23)C(O)=C1c1ccc(-c2ccccc2)cc1" 4

Give a short answer stating reported MIC for "CCCc1ccc(-c2ccc(C3=C(O)/C(=C/c4cccc(C(F)(F)F)c4)OC3=O)cc2)cc1" . 4

---

Test system: Trichostrongylus columbriformis
Assay: In vivo efficacy against T. colubriformis in infected gerbils
Settings: gerbils infected with T. colubriformis; single oral dose of 50 mg/kg by gavage; worm counts four days post-treatment; % mortality as compared to negative control
Experimental: In Vivo Evaluation of the Efficacy of Test Compounds Against T. colubriformis In this evaluation, gerbils are infected with Trichostrongylus columbriformis infective larvae at a concentration of approximately 800 L3/mL. Larvae for gerbil infections are cultured from feces from sheep previously infected with T. colubriformis. One week post infection, test compounds are administered by gavage as a single oral dose of 50 mg/kg of body weight. […]
outcomeMeasure: Mortality
Please report the result as a number followed by the unit.

Examples with answers:
CC(=O)c1cccc(C2=C(O)C(=Cc3cccc4ccccc34)OC2=O)c1 = 10.70%
O=C1OC(=Cc2ccc(OC(F)(F)F)cc2)C(O)=C1c1ccc(OC(F)(F)F)cc1 (mixture of isomers) = 100.0%
O=C1OC(=Cc2ccc(-c3ccccc3)cc2)C(O)=C1c1cccc(Cl)c1 = 19.40%
O=C1OC(=Cc2ccc(F)cc2)C(O)=C1c1cccc(C(F)(F)F)c1 (mixture of isomers) = 36.40%

Recall and state the measured Mortality for N#Cc1ccc(C=C2OC(=O)C(c3cccc(C(F)(F)F)c3)=C2O)cc1 (mixture of isomers) . 0.00%

Input O=C1OC(=Cc2ccc(-c3ccc(Cl)cc3)cc2)C(O)=C1c1cccc(Cl)c1 (mixture of isomers) , output reported Mortality. 37.60%

Report Mortality, nothing else, for this compound: "Cc1ccccc1-c1ccc(C=C2OC(=O)C(c3cccc(Cl)c3)=C2O)cc1C" 10.80%

---

test system: Streptococci; assay: Minimum inhibitory concentration, microdilution broth method, streptococci; type: cell-based; details: S. pneumo GC 1894; Mueller-Hinton broth with 5% horse blood, 18-22 hours at 35° C.
Each entry below carries its reported MIC.
Numbers only here, please. The scale is mg/L.

In one line, give reported MIC of the entry O=C1O/C(=C\c2cc(F)cc(C(F)(F)F)c2)C(O)=C1c1ccc(-c2ccccc2)c(F)c1 [Example 110] . 0.25

Look up and state reported MIC for CCOc1ccc(-c2ccc(C3=C(O)/C(=C/c4ccc(Cl)c(C(F)(F)F)c4)OC3=O)cc2)cc1 [Example 124] 1

Answer with the recorded MIC for the compound listed here: O=C1O/C(=C\c2ccc3ccccc3c2)C(O)=C1c1cccc(C(F)(F)F)c1 [Example 8] 0.25

Identify measured MIC corresponding to COc1cc(/C=C2\OC(=O)C(c3cccc(Cl)c3)=C2O)ccc1-c1ccccc1C(F)(F)F [Example 32] 0.5

---

tested on: Trichostrongylus columbriformis; assay: In vivo efficacy against T. colubriformis in infected gerbils; details: gerbils infected with T. colubriformis; single oral dose of 50 mg/kg by gavage; worm counts four days post-treatment; % mortality as compared to negative control
Returns the class for an entry based on its Mortality. Class ranges: low (below 20%), mid (20% to below 50%), high (50% or more)

O=C1OC(=Cc2ccc(F)cc2)C(O)=C1c1cccc(Cl)c1 (mixture of isomers) = low
N#Cc1ccc(-c2ccc(C3=C(O)C(=Cc4ccc(Cl)cc4)OC3=O)cc2)cc1 (mixture of isomers) = low
O=C1OC(=Cc2ccc(C(F)(F)F)cc2)C(O)=C1c1ccc(-c2ccc(Cl)cc2)cc1 (mixture of isomers) = mid

Now, please, on to the next compound.
Exercise: read the entry N#Cc1ccc(-c2ccc(C=C3OC(=O)C(c4cccc(C(F)(F)F)c4)=C3O)cc2)cc1 (mixture of isomers) and state which class it falls under. mid

---

test system: C. elegans; test: Efficacy against nematodes (C. elegans motility rating); set-up: key: 0: no effect; 7: reduced movement in 24 h; 8: dead in 24 h; 9: dead in 4 h; settings: dose 100 ppm, observations at 4 h and 24 h postimmersion
outcomeMeasure: Rating
Would you mind answering with just the numeric figure?

Solved cases below.
O=C1OC(=Cc2ccc(-c3ccc(C(F)(F)F)cc3)cc2)C(O)=C1c1ccc(Cl)cc1 (mixture of isomers) = 9
O=C1OC(=Cc2ccc(-n3cncn3)cc2)C(O)=C1c1ccc(OC(F)(F)F)cc1 (mixture of isomers) = 9
O=C1OC(=Cc2ccc(-c3ccc(F)c(C(F)(F)F)c3)o2)C(O)=C1c1ccc(OC(F)(F)F)cc1 (mixture of isomers) = 9
O=C1OC(=Cc2cnccc2-c2ccc(F)cc2)C(O)=C1c1ccc(OC(F)(F)F)cc1 (mixture of isomers) = 9
O=C1OC(=Cc2ccc(Cl)cc2)C(O)=C1c1ccc(C(F)(F)F)cc1 (mixture of isomers) = 9
COc1ccc(-n2ncc(C=C3OC(=O)C(c4ccc(OC(F)(F)F)cc4)=C3O)c2C)cc1 (mixture of isomers) = 0

Next molecule, please.
Quote Rating reported for O=C1OC(=Cc2ccc(F)cc2)C(O)=C1c1ccc(Cl)cc1 (mixture of isomers) please. 9

---

biological target: E. coli Uridine-diphosphate-N-acetvimuramoyl: L-alanine lipase, MurC (Escherichia coli); assay: Inhibitory activity against MurC (E. coli); format: biochemical; details: (E) E. coli enzyme
Sequence (P17952 whole entry): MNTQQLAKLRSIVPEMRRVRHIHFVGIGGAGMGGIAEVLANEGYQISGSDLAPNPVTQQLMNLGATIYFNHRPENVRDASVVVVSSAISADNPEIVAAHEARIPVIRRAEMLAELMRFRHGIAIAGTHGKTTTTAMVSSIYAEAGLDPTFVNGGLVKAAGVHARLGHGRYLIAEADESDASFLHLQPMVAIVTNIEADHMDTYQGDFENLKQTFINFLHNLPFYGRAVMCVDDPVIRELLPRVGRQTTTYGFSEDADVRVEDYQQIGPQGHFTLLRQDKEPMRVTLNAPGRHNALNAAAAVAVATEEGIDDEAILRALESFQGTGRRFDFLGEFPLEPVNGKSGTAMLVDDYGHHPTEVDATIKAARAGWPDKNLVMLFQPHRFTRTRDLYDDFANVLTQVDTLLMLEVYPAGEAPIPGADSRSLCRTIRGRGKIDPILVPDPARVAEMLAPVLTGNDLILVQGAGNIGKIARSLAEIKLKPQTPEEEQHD
Decide by MurC IC50: equal to or exceeding 9 µg/mL means True, less means False.

O=C1O/C(=C\c2cccc(C(F)(F)F)c2)C(O)=C1c1ccc2ccccc2c1 = False
O=C1OC(=CC2CCCCC2)C(O)=C1c1cccc(C(F)(F)F)c1 = False

Given the entry "O=C1O/C(=C\c2ccc(-c3cc(Cl)cc(Cl)c3)cc2)C(O)=C1c1cc(Cl)cc(Cl)c1" , answer whether its MurC IC50 meets or surpasses 9 µg/mL. True

Has "O=C1O/C(=C\c2cccc(-c3cc(Cl)cc(Cl)c3)c2)C(O)=C1c1cc(Cl)cc(Cl)c1" a recorded MurC IC50 greater than or equal to 9 µg/mL? True

Confirm if MurC IC50 reported for the compound O=C1OC(=Cc2cccc3ccccc23)C(O)=C1c1ccc(C=NO)cc1 (mixture of isomers) is 9 µg/mL or above. True

Hello, I need to know if O=C1OC(=Cc2ccc(-c3ccccc3)cc2)C(O)=C1c1cccc(C(F)(F)F)c1 (mixture of isomers) has measured MurC IC50 not below 9 µg/mL. Thanks! False

---

Biological target: E. coli Enopyruvyl-UPD-N-acetylglucosamine reductase, Mur B (Escherichia coli)
Sequence (P08373 whole entry): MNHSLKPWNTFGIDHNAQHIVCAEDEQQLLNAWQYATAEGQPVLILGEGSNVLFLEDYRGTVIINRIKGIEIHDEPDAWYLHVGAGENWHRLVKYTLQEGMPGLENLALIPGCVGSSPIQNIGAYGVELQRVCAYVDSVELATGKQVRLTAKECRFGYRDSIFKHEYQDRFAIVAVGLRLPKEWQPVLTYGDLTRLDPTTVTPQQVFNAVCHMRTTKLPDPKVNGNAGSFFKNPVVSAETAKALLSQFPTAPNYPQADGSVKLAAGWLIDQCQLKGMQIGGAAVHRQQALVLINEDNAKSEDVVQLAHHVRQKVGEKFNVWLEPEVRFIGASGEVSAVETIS
Test: biochemical
Settings: (E) E. coli enzyme; read-out: MurB IC50 (converted)
Experimental: S. aureus and E. coli Enopyruvyl-UPD-N-acetylglucosamine reductase, Mur B Preparation of Tris/BME buffer: Dilute 17.5 uL of aqueous 5 mM BME (2-mercaptoethanol) to 50 mL with 50 mM Tris/HCl (pH 8.0). Preparation of Enzyme Solution: Dilute aqueous MurB stock solution (0.94 mg/mL) with 200 parts 50 mM Tris/2-BME buffer. Synthesis of Substrate for MurB (MurA Product EP-UDP-GluNAc): […] Using these values, the IC50 for each test compound is determined by linear regression analysis.
outcomeMeasure: log10 of IC50 (log10 of the value in µM)
Answers are given as log10 of IC50 in µM.

Completed entries (count: 10):
CCOc1ccc(-c2ccc(C3=C(O)/C(=C/c4cccc(C(F)(F)F)c4)OC3=O)cc2)cc1 [Example 133] = 1.42
CN(C)c1ccc(/C=C2\OC(=O)C(c3ccc(C(F)(F)F)cc3)=C2O)c2ccccc12 [Example 81] = 1.73
CCCc1ccc(-c2ccc(C3=C(O)/C(=C/c4cccc(C(F)(F)F)c4)OC3=O)cc2)cc1 [Example 131] = 0.65
O=C1O/C(=C\c2ccccc2C(F)(F)F)C(O)=C1c1ccc(-c2ccccc2)cc1 [Example 99] = 1.17
O=C1O/C(=C\c2ccc(-c3ccccc3)cc2)C(O)=C1c1cc(Cl)cc(Cl)c1 [Example 67] = 0.39
O=C1O/C(=C\c2ccc(Cl)cc2)C(O)=C1c1ccc(-c2ccccc2)cc1 [Example 139] = 1.20
O=C1O/C(=C\c2ccc(-c3ccccc3)cc2)C(O)=C1c1ccc(Cl)c(Cl)c1 [Example 66] = 0.69
COc1cc(/C=C2\OC(=O)C(c3cccc(Cl)c3)=C2O)ccc1-c1ccccc1Cl [Example 18] = 1.14
CN(C)c1ccc(/C=C2\OC(=O)C(c3ccc(Cl)cc3)=C2O)c2ccccc12 [Example 78] = 0.88
O=C1O/C(=C\c2ccc(-c3ccccc3)cc2)C(O)=C1c1csc2ccccc12 [Example 143] = 1.25

Return log10 of IC50 for the following compound: COc1ccc(C2=C(O)/C(=C/c3ccc4ccccc4c3)OC2=O)cc1 [Example 7] 1.79

Provide measured log10 of IC50 value, entry: O=C1O/C(=C\c2ccc(-c3ccccc3)cc2)C(O)=C1c1cccs1 [Example 144] 1.76

Identify measured log10 of IC50 associated with CCCc1ccc(-c2ccc(C3=C(O)/C(=C/c4cc(F)cc(C(F)(F)F)c4)OC3=O)cc2)cc1 [Example 111] 1.37

Give log10 of IC50 for O=C1O/C(=C\c2cc(C(F)(F)F)ccc2Cl)C(O)=C1c1ccc(-c2ccccc2)cc1 [Example 125] 1.05
